Tested on: Escherichia coli
Experiment: microbe, parasite or virus in culture
Format: functional
Conditions: isolate CAN-ICU 63074, 24 h
Description: Antibacterial activity against Escherichia coli isolate CAN-ICU 63074 after 24 hrs by macrobroth dilution method in the presence of bovine serum albumin
This listing pairs molecules with measured MIC90.

Asked: Provide measured MIC90 value, entry: Oc1cc(Cl)ccc1Oc1ccc(Cl)cc1Cl
Given back: 64 µg/mL

Asked: Provide measured MIC90 value, entry: CC(C)(C)CC(C)(C)c1ccc(OCc2cn(C[C@H]3O[C@@H](O[C@@H]4[C@@H](O)[C@H](N)C[C@H](N)[C@H]4O[C@H]4O[C@H](CN)[C@@H](O)[C@H](O)[C@H]4N)[C@H](O)[C@@H]3O[C@H]3O[C@@H](CN)[C@@H](O)[C@H](O)[C@H]3N)nn2)c(Cc2ccc(Cl)cc2Cl)c1
Given back: 256 µg/mL

Asked: Provide measured MIC90 value, entry: NC[C@@H]1O[C@H](O[C@H]2[C@@H](O)[C@H](O[C@@H]3[C@@H](O)[C@H](N)C[C@H](N)[C@H]3O[C@H]3O[C@H](CN)[C@@H](O)[C@H](O)[C@H]3N)O[C@@H]2CO)[C@H](N)[C@@H](O)[C@@H]1O.O.O=S(=O)(O)O [NEOMYCIN TRISULFATE HYDRATE]
Given back: 16 µg/mL

Asked: Provide measured MIC90 value, entry: CC(C)(C)CC(C)(C)c1ccc(OCCCCc2cn(C[C@H]3O[C@@H](O[C@@H]4[C@@H](O)[C@H](N)C[C@H](N)[C@H]4O[C@H]4O[C@H](CN)[C@@H](O)[C@H](O)[C@H]4N)[C@H](O)[C@@H]3O[C@H]3O[C@@H](CN)[C@@H](O)[C@H](O)[C@H]3N)nn2)c(Cc2ccc(Cl)cc2Cl)c1
Given back: 256 µg/mL

* * *

This listing pairs molecules with measured MIC90.
Test system: Pseudomonas aeruginosa
Assay: microbe, parasite or virus in culture
Format: functional
Conditions: ATCC 27853, 24 h
Description: Antibacterial activity against Pseudomonas aeruginosa ATCC 27853 after 24 hrs by macrobroth dilution method

The examples below pair each entry with its known result.
molecule: Oc1cc(Cl)ccc1Oc1ccc(Cl)cc1Cl [TRICLOSAN]
MIC90: > 512 µg/mL

molecule: Cc1cc(O)cc(C)c1Cl [CHLOROXYLENOL]
MIC90: 512 µg/mL

Asked: Provide measured MIC90 value, entry: CC(C)(C)CC(C)(C)c1ccc(OCCCCc2cn(C[C@H]3O[C@@H](O[C@@H]4[C@@H](O)[C@H](N)C[C@H](N)[C@H]4O[C@H]4O[C@H](CN)[C@@H](O)[C@H](O)[C@H]4N)[C@H](O)[C@@H]3O[C@H]3O[C@@H](CN)[C@@H](O)[C@H](O)[C@H]3N)nn2)c(Cc2ccc(Cl)cc2Cl)c1
Given back: 128 µg/mL

Asked: Provide measured MIC90 value, entry: Cc1cc(OCc2cn(C[C@H]3O[C@@H](O[C@@H]4[C@@H](O)[C@H](N)C[C@H](N)[C@H]4O[C@H]4O[C@H](CN)[C@@H](O)[C@H](O)[C@H]4N)[C@H](O)[C@@H]3O[C@H]3O[C@@H](CN)[C@@H](O)[C@H](O)[C@H]3N)nn2)cc(C)c1Cl
Given back: 512 µg/mL

Asked: Provide measured MIC90 value, entry: Cc1cc(OCCCCc2cn(C[C@H]3O[C@@H](O[C@@H]4[C@@H](O)[C@H](N)C[C@H](N)[C@H]4O[C@H]4O[C@H](CN)[C@@H](O)[C@H](O)[C@H]4N)[C@H](O)[C@@H]3O[C@H]3O[C@@H](CN)[C@@H](O)[C@H](O)[C@H]3N)nn2)cc(C)c1Cl
Given back: 512 µg/mL
